# Condition parameters: in ethyl acetate, 283.15 K
Reported endpoint: solubility (mole fraction)
Just the number, please.

Reported solubility (mole fraction) for `COc1ccc(C(=O)O)cc1` : what is it?
0.00728

---

# Condition parameters: in n-propanol, 283.15 K
Reported endpoint: solubility (mole fraction)

For the compound `COc1ccc(C(=O)O)cc1` , what solubility (mole fraction) is on record?
0.00631

---

# Condition parameters: in methyl acetate, 303.15 K
Reported endpoint: solubility (mole fraction)
Give only the figure.

Value lookup for solubility (mole fraction); key = `COc1ccc(C(=O)O)cc1`
0.0131

---

# Condition parameters: in ethyl acetate, 303.15 K
Reported endpoint: solubility (mole fraction)
The reply should be a number, written without any unit.

# lookup: solubility (mole fraction) of `COc1ccc(C(=O)O)cc1`
0.0128

---

# Condition parameters: in methyl acetate, 288.15 K
Reported endpoint: solubility (mole fraction)

Which solubility (mole fraction) is listed for `COc1ccc(C(=O)O)cc1` ?
0.00849

---

# Condition parameters: in n-propanol, 293.15 K
Reported endpoint: solubility (mole fraction)
Note: the reply should be a number with no unit written.

Find the recorded solubility (mole fraction) belonging to `COc1ccc(C(=O)O)cc1` and report it.
0.00895

---

# Condition parameters: in chloroform, 313.15 K
Reported endpoint: solubility (mole fraction)

Name the reported solubility (mole fraction) value associated with the compound `COc1ccc(C(=O)O)cc1`
0.00538

---

# Condition parameters: in acetonitrile, 308.15 K
Reported endpoint: solubility (mole fraction)

# query: solubility (mole fraction) of entry `COc1ccc(C(=O)O)cc1`
0.00419

---

# Condition parameters: in isopropanol, 303.15 K
Reported endpoint: solubility (mole fraction)

# solubility (mole fraction) lookup, item `COc1ccc(C(=O)O)cc1`
0.0127

---

# Condition parameters: in isopropanol, 298.15 K
Reported endpoint: solubility (mole fraction)
Enter the number alone.

Requested field: solubility (mole fraction). Item: `COc1ccc(C(=O)O)cc1`
0.0105

---

# Condition parameters: in methyl acetate, 278.15 K
Reported endpoint: solubility (mole fraction)
Respond numerically, and do not add a unit to the figure.

Record request: solubility (mole fraction) value, item `COc1ccc(C(=O)O)cc1`
0.00611

---

# Condition parameters: in chloroform, 278.15 K
Reported endpoint: solubility (mole fraction)
I'd appreciate a reply containing only the number, no unit.

Any idea what its solubility (mole fraction) is? The compound is `COc1ccc(C(=O)O)cc1`
0.00135

---

# Condition parameters: in methanol, 293.15 K
Reported endpoint: solubility (mole fraction)
Simply state the number, no unit and no words.

So what does the record say about solubility (mole fraction) for `COc1ccc(C(=O)O)cc1` ?
0.00857

---

# Condition parameters: in methanol, 273.15 K
Reported endpoint: solubility (mole fraction)
Answer with a bare number; do not write a unit.

Please look up its solubility (mole fraction): `COc1ccc(C(=O)O)cc1`
0.00454

---

# Condition parameters: in methanol, 283.15 K
Reported endpoint: solubility (mole fraction)
Provide a numeric answer; units are not to be included.

Look up solubility (mole fraction) for this molecule: `COc1ccc(C(=O)O)cc1`
0.00632

---

# Condition parameters: in methyl acetate, 283.15 K
Reported endpoint: solubility (mole fraction)

Which solubility (mole fraction) is listed for `COc1ccc(C(=O)O)cc1` ?
0.0073
